Record form. Attribute: koff. Fill in for each entry.
# system: T1, Soluble heterodimeric CD3 protein (hCD3-epsilon/hCD3-delta) with either a human Fc tag (hFcΔAdp/hFc) or a … (human, UniProt P07766 23-126; P04234 22-105)
# T1 construct: also called hCD3ε/δ; not shown: Fc tag: human (hFcΔAdp/hFc)
# T1 sequence (P07766 23-126 limits assumed, stated change not applied, chain 1 of 2): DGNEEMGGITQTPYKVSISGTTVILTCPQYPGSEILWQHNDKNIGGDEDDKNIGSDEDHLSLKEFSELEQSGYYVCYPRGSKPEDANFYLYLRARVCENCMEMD
# T1 sequence (P04234 22-105 limits assumed, stated change not applied, chain 2 of 2): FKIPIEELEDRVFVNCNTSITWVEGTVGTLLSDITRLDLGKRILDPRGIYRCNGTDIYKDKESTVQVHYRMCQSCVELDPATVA
# method: SPR Biacore 25C antibody-capture
Numbers only, in s⁻¹.

binder | quantity kind | unit of measure | obs value
H1H5791B (antibody, human IgG1, V domains shown, H1H: human IgG1 Fc; divalent) VH: QVQLVESGAEVKKPGASVKVSCKTSGYTLSGYYMHWMRQAPGQGLEWMGWINPKSGVTNYAQKFQDRVAMTRDTSISTAYMELSRLRSDDTAVYYCARMGDGAVFDFWAQGTLVTVSS VL: DIQLTQSPSSLSASVGDRVTITCRASQRISSFLNWYQQKPGKAPKLLIYTASNLQNGVPSRFSGSGSGTDFTLTISSLQPEDFATYYCQQSYRTPLTFGGGTKLEIKR | koff | s⁻¹ | 0.00079

Item: H1H5764P (antibody, human IgG1, V domains shown, H1H: human IgG1 Fc; divalent) VH: QVQLVESGGGVVQPGRSLRLSCAASGFTFRSFGMHWVRQAPGKGLEWVAVISYDGNYKYYADSVKGRFTISRDNSKNTLYLQMNSLRAEDTAVHYCAKGAMVRGVPYNFYYGMDVWGQGTTVTVSS VL: DIQMTQSPSSLSASVGDRVTITCRASQVIRNDLGWYQQKPGKAPKRLIYAASSLQSGIPSRFSGSGSGTEFTLTISSLQPEDFATYYCLQHNSYPYTFGQGTKLEIK | koff: 0.0159
